biological target: recombinant human SAE enzyme (Homo sapiens (Human), UniProt Q9UBT2); assay: SAE HTRF enzyme assay; type: biochemical; conditions: class symbols A/B/C
Sequence (Q9UBT2 whole entry): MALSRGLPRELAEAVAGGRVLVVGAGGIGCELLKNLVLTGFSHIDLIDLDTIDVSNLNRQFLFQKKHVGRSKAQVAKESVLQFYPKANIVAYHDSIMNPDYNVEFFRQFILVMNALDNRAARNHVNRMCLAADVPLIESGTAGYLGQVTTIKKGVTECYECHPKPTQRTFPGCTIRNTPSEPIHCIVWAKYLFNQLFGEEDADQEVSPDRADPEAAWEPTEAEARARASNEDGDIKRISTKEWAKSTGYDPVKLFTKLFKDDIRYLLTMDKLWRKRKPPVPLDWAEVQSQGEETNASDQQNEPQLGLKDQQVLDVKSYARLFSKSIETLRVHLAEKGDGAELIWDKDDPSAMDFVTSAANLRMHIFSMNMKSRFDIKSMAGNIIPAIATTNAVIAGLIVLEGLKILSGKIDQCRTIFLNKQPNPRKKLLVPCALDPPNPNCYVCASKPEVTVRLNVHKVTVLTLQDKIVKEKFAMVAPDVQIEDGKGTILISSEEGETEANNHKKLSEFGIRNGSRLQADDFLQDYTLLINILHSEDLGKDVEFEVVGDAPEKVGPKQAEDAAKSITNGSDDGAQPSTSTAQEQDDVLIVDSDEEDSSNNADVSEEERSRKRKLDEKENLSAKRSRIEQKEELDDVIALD
Sequence (Q9UBE0 whole entry partner): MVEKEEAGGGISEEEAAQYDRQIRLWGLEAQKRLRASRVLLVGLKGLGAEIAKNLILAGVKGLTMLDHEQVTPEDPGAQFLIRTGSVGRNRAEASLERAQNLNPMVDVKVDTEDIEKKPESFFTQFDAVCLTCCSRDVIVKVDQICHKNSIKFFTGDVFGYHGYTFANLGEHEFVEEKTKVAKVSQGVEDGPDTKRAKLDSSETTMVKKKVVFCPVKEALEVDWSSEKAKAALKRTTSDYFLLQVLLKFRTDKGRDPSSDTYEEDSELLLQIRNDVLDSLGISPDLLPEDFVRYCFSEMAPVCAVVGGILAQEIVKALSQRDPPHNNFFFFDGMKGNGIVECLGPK
Experimental Endpoint: IC50

Worked cases, IC50 given:
| Molecule | IC50 |
| --- | --- |
| CC(O)(c1cccc(Br)c1)c1csc(C(=O)c2cncnc2N[C@@H]2C[C@H](COS(N)(=O)=O)[C@@H](O)C2)c1 (single isomer, unassigned) [I-3a] | 10 to 100 nM |
| C[C@](O)(c1csc(C(=O)c2cncnc2N[C@@H]2C[C@H](COS(N)(=O)=O)[C@@H](O)C2)c1)c1cccc(Br)n1 (mixture of isomers) [I-54] | < 10 nM |

Alright, here's another molecule for you.
Would you mind telling me what IC50 value was observed for CO[C@@H](c1cccc(Br)c1)c1csc(C(=O)c2cncnc2N[C@@H]2C[C@H](COS(N)(=O)=O)[C@@H](O)C2)c1 (single isomer, unassigned) [I-73b] ?
< 10 nM

====

Catalogue of compounds with associated Percent Inhibition
biological target: recombinant human SAE enzyme (Homo sapiens (Human), UniProt Q9UBT2); experiment: SAE HTRF enzyme assay; assay type: biochemical; conditions: Concentration 0.111 μM
# answer = number (no unit)

Worked cases, Percent Inhibition given:
| Compound | Measurement Target | Percent Inhibition |
| --- | --- | --- |
| CN(C)[C@H](c1cccc(Cl)c1)c1csc(C(=O)c2cncnc2N[C@@H]2C[C@H](COS(N)(=O)=O)[C@@H](O)C2)c1 (single isomer, unassigned) [I-153b] | recombinant human SAE enzyme (Homo sapiens (Human), UniProt Q9UBT2) | 92 |
| C=C(C)[C@@H](O)c1coc(C(=O)c2cncnc2N[C@@H]2C[C@H](COS(N)(=O)=O)[C@@H](O)C2)c1.C=C(C)[C@H](O)c1coc(C(=O)c2cncnc2N[C@@H]2C[C@H](COS(N)(=O)=O)[C@@H](O)C2)c1 (mixture of isomers) [I-197] | recombinant human SAE enzyme (Homo sapiens (Human), UniProt Q9UBT2) | 69 |
| Cc1oc(C(=O)c2cncnc2N[C@@H]2C[C@H](COS(N)(=O)=O)[C@@H](O)C2)cc1[C@@H]1OCCc2ccc(Cl)cc21 (single isomer, unassigned) [I-270b] | recombinant human SAE enzyme (Homo sapiens (Human), UniProt Q9UBT2) | 99 |
| NS(=O)(=O)OC[C@H]1C[C@@H](Nc2ncncc2C(=O)c2cc([C@@H]3NCCc4ccc(Br)cc43)c(Cl)s2)C[C@@H]1O (single isomer, unassigned) [I-251a] | recombinant human SAE enzyme (Homo sapiens (Human), UniProt Q9UBT2) | 100 |
| Cc1sc(C(=O)c2cncnc2N[C@@H]2C[C@H](COS(N)(=O)=O)[C@@H](O)C2)cc1[C@H](C)c1cccc(Cl)c1 (single isomer, unassigned) [I-135b] | recombinant human SAE enzyme (Homo sapiens (Human), UniProt Q9UBT2) | 95 |

Hi! What's the reported Percent Inhibition for NS(=O)(=O)OC[C@H]1C[C@@H](Nc2ncncc2C(=O)c2cc([C@@H]3OCCc4cc(F)c(F)cc43)cs2)C[C@@H]1O (single isomer, unassigned) [I-273] on recombinant human SAE enzyme (Homo sapiens (Human), UniProt Q9UBT2)?
99

Now this one: N[C@H](c1cccc(Cl)n1)c1cc(C(=O)c2cncnc2N[C@@H]2C[C@H](COS(N)(=O)=O)[C@@H](O)C2)sc1Cl (single isomer, unassigned) [I-25a]
97

Now this one: NS(=O)(=O)OC[C@H]1C[C@@H](Nc2ncncc2C(=O)c2cc([C@@]3(c4ccccc4)CCCO3)cs2)C[C@@H]1O (mixture of isomers) [I-32]
98

Now this one: NS(=O)(=O)OC[C@H]1C[C@@H](Nc2ncncc2C(=O)c2cc([C@@H]3OCCc4ccc(Cl)nc43)c(Cl)s2)C[C@@H]1O (single isomer, unassigned) [I-276a]
28

Now this one: NS(=O)(=O)OC[C@H]1C[C@@H](Nc2ncncc2C(=O)c2cc([C@@H](O)c3cccc(Br)c3)c(Cl)s2)C[C@@H]1O (single isomer, unassigned) [I-16a]
99

Now this one: C[C@@](O)(c1cccc(Cl)c1)c1cc(C(=O)c2cncnc2N[C@@H]2C[C@H](COS(N)(=O)=O)[C@@H](O)C2)sc1Cl (mixture of isomers) [I-102]
94

====

target: recombinant human SAE enzyme (Homo sapiens (Human)); assay: SAE HTRF enzyme assay; assay type: biochemical; conditions: Concentration 0.111 μM
Catalogue of compounds with associated Percent Inhibition

Worked cases, Percent Inhibition given:
| Compound | Percent Inhibition |
| --- | --- |
| Cc1sc(C(=O)c2cncnc2N[C@@H]2C[C@H](COS(N)(=O)=O)[C@@H](O)C2)cc1[C@H](C)c1cccc(Cl)c1 (single isomer, unassigned) [I-135a] | 82 |
| NS(=O)(=O)OC[C@H]1C[C@@H](Nc2ncncc2C(=O)c2cc([C@@H]3SCCc4ccc(Cl)cc43)cs2)[C@H](O)[C@@H]1O (mixture of isomers) | 98 |
| NS(=O)(=O)OC[C@H]1C[C@@H](Nc2ncncc2C(=O)c2cc([C@H](O)c3cccc(Cl)c3)c(Cl)s2)C[C@@H]1O (single isomer, unassigned) [I-9b] | 97 |
| NS(=O)(=O)OC[C@H]1C[C@@H](Nc2ncncc2C(=O)c2cc([C@H](O)C3CCOCC3)c(Cl)s2)C[C@@H]1O (mixture of isomers) | 89 |

Would you mind telling me what Percent Inhibition value was observed for Cc1ccn(Cc2csc(C(=O)c3cncnc3N[C@@H]3C[C@H](COS(N)(=O)=O)[C@@H](O)C3)c2)c1 ?
91

Now this one: NS(=O)(=O)OC[C@H]1C[C@@H](Nc2ncncc2C(=O)c2cc([C@@H]3OCCc4cccnc43)c(Cl)s2)C[C@@H]1O (single isomer, unassigned) [I-266a]
41

====

target: recombinant human SAE enzyme (Homo sapiens (Human), UniProt Q9UBT2); assay: SAE HTRF enzyme assay; type: biochemical; conditions: class symbols A/B/C
pIC50: −log10 of the molar value.
Catalogue of molecules with associated pIC50

| Molecule | Endpoint Value |
| --- | --- |
| NS(=O)(=O)OC[C@H]1C[C@@H](Nc2ncncc2C(=O)c2cc(Cc3cccc(OC(F)F)c3)cs2)C[C@@H]1O | > 8.00 |

Would you mind telling me what pIC50 value was observed for C=C(C)[C@H](O)c1cc(C(=O)c2cncnc2N[C@@H]2C[C@H](COS(N)(=O)=O)[C@@H](O)C2)sc1Cl (mixture of isomers) ?
> 8.00

Now this one: Cc1sc(C(=O)c2cncnc2N[C@@H]2C[C@H](COS(N)(=O)=O)[C@@H](O)C2)cc1[C@@H]1OCCc2ccc(C3CC3)cc21 (single isomer, unassigned) [I-277b]
7.00 to 8.00

Now this one: NS(=O)(=O)OC[C@H]1C[C@@H](Nc2ncncc2C(=O)c2cc(Cc3cccc(Cl)c3)c(F)s2)C[C@@H]1O
> 8.00

Now this one: C[C@](O)(c1csc(C(=O)c2cncnc2N[C@@H]2C[C@H](COS(N)(=O)=O)[C@@H](O)[C@H]2O)c1)c1cccc(Br)n1 (single isomer, unassigned) [I-1b]
> 8.00

Now this one: Cc1ccc2ccn(Cc3csc(C(=O)c4cncnc4N[C@@H]4C[C@H](COS(N)(=O)=O)[C@@H](O)C4)c3)c2c1
> 8.00

Now this one: C[C@@H](c1cccc(Cl)c1)c1csc(C(=O)c2cncnc2N[C@@H]2C[C@H](COS(N)(=O)=O)[C@@H](O)C2)c1 (mixture of isomers)
> 8.00

Now this one: NS(=O)(=O)OC[C@H]1C[C@@H](Nc2ncncc2C(=O)c2cc([C@@H]3NCCc4ccc(Cl)cc43)c(Cl)s2)[C@H](O)[C@@H]1O (single isomer, unassigned) [I-249b]
> 8.00

Now this one: COCc1coc(C(=O)c2cncnc2N[C@@H]2C[C@H](COS(N)(=O)=O)[C@@H](O)C2)c1
6.00 to 7.00

====

molecular target: recombinant human SAE enzyme (Homo sapiens (Human), UniProt Q9UBT2); test: SAE HTRF enzyme assay; type: biochemical; settings: class symbols A/B/C
Catalogue of compounds with associated IC50

| Compound | IC50 |
| --- | --- |
| NS(=O)(=O)OC[C@H]1C[C@@H](Nc2ncncc2C(=O)c2cc(Cc3ccccc3)c(Cc3ccccc3)o2)C[C@@H]1O | < 10 nM |
| Cc1sc(C(=O)c2cncnc2NC2CC(O)C(COS(N)(=O)=O)C2)cc1C(O)c1cccc(Cl)c1 (mixture of isomers) | < 10 nM |
| NS(=O)(=O)OC[C@H]1C[C@@H](Nc2ncncc2C(=O)c2cc([C@@]3(c4ccccc4)CCCO3)cs2)C[C@@H]1O (mixture of isomers) [I-32] | < 10 nM |
| CN1Cc2ccc(Cl)cc2[C@@H]1c1csc(C(=O)c2cncnc2N[C@@H]2C[C@H](COS(N)(=O)=O)[C@@H](O)C2)c1 (mixture of isomers) [I-265] | < 10 nM |
| NS(=O)(=O)OC[C@H]1C[C@@H](Nc2ncncc2C(=O)c2cc([C@@H]3OCCc4ccc(Br)cc43)cs2)C[C@@H]1O (single isomer, unassigned) [I-268a] | 100 to 1000 nM |

Alright, here's another compound for you.
Would you mind telling me what IC50 value was observed for CC(C)Oc1ccccc1OCc1csc(C(=O)c2cncnc2N[C@@H]2C[C@H](COS(N)(=O)=O)[C@@H](O)C2)c1 ?
10 to 100 nM
